# Test system: TRPC4 beta (transient receptor potential cation channel C4), mouse
# measurement_protocol: TRPC4 cation channel opening, retest – cell-based, Fluo4 calcium, HEK293 TRPC4beta/mu-opioid, duplicates, 10 µM, confirmation (AID 2426)
# test_conditions: Fluo4 calcium fluorescence, at 10 µM
Active and inactive are the calls of the source.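 The calls were made as follows: active = fluorescence ratio normalized to control raised more than 50% in primary screen plus both repeat runs; inactive = the rest.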
Field 'call' accepts true (active), false (inactive)

Use these answered entries as a reference point.
[[record]]
molecule = "Cc1onc(-c2ccccc2Cl)c1C(=O)N1CCN(C/C=C/c2ccccc2)CC1"
category_label = "true"

[[record]]
molecule = "Cc1ccc(Cl)c(OCCN2CCCC(C)C2)c1 (centres undefined)"
category_label = "false"

[[record]]
molecule = "O=C(NCCCN1CCOCC1)C1CCN(S(=O)(=O)c2c(Cl)cccc2Cl)CC1"
category_label = "false"

[[record]]
molecule = "Cc1ccc(CS(=O)(=O)CCC(=O)NCCC2=CCCCC2)cc1"
category_label = "false"

[[record]]
molecule = "CCOC(=O)C1=C(CNCCc2ccc(Cl)cc2)NC(=O)NC1c1cccc([N+](=O)[O-])c1 (centres undefined)"
category_label = "false"

[[record]]
molecule = "COc1ccc(C(CNc2ncnc3sc(C)c(C)c23)N(C)C)cc1 (centres undefined)"
category_label = "true"


// outcome(item) with item = "CCCCn1c(NCCO)nc2ccccc21"
false

// outcome(item) with item = "CC1CCN(c2nc(Cl)nc(Nc3ccc([N+](=O)[O-])cc3)n2)CC1"
false

// outcome(item) with item = "CCCN1Cc2cccc(C(=O)N3CCN(c4cc(Cl)ccc4C)CC3)c2C1=O"
false

----------
# measured_target: Short transient receptor potential channel 4 (Mus musculus) (UniProt Q9QUQ5)
# Sequence (Q9QUQ5 whole entry, looked up): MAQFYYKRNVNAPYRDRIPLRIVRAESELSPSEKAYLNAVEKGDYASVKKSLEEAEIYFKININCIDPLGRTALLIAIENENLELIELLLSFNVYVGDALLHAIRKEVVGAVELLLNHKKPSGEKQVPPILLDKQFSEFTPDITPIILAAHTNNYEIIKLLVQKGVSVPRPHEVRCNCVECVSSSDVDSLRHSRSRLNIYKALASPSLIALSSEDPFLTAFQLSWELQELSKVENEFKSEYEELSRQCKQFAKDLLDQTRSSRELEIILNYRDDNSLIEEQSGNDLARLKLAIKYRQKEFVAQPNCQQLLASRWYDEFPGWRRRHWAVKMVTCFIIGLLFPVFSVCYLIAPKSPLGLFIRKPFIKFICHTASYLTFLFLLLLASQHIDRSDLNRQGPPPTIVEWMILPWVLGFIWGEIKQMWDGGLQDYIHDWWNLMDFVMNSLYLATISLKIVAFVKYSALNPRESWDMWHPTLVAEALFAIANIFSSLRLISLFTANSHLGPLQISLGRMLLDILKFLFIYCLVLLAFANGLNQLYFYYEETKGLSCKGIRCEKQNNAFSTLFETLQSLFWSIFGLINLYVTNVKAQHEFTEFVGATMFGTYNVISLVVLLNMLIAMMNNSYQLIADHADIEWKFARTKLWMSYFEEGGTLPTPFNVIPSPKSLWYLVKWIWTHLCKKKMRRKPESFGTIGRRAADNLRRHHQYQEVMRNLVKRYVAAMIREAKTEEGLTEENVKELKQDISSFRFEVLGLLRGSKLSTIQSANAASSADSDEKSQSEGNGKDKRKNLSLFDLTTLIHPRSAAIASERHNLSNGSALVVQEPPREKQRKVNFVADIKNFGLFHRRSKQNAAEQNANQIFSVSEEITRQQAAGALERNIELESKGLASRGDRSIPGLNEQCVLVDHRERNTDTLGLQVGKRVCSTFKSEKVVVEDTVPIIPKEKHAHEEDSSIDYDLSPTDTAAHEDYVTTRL
# measurement_protocol: blockers of DAMGO-evoked TRPC4 calcium flux – cell-based, Fluo4, HEK293 TRPC4beta/mu-opioid, confirmation (AID 2636)
# test_conditions: at 10 µM
The source made the active and inactive calls.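 The calls were made as follows: active = calcium signal cut by more than 3 SD below the full-agonist control yet still positive, in both repeats and the earlier primary screen; inactive = the rest.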
Field 'call' accepts 1.0 = active, 0.0 = inactive

[[record]]
compound = "CC(=O)N1CCN(c2ccccc2NC(=O)c2cccs2)CC1"
category_label = 1.0

[[record]]
compound = "CCOC(=O)c1ccc(NC(=O)NCCc2cnc[nH]2)cc1"
category_label = 0.0

[[record]]
compound = "COc1ccc(Nc2c3c(nc4ccccc24)CCC3)cc1"
category_label = 1.0


// outcome(item) with item = CC(CCc1ccc(O)cc1)N(C)CCc1ccccc1 (configuration not stated)
0.0

// outcome(item) with item = "CC(C)NC(=S)N1CCN(C/C=C/c2ccccc2)CC1"
1.0

// outcome(item) with item = CC(OC(=O)CNC(=O)c1ccccc1F)C(=O)Nc1nc(-c2ccccc2)cs1 (configuration not stated)
1.0

// outcome(item) with item = "CCOc1ccc(CN(C)CC(=O)NNC(=O)c2ccc(Cl)cc2)cc1OC"
0.0

// outcome(item) with item = "COc1nc(N=C(N)N)nc2ccc(C)cc12"
1.0

----------
# measured_target: Short transient receptor potential channel 4 (Mus musculus) (UniProt Q9QUQ5)
# measurement_protocol: blockers of DAMGO-evoked TRPC4 calcium flux – cell-based, Fluo4, HEK293 TRPC4beta/mu-opioid, confirmation (AID 2636)
# test_conditions: at 10 µM
The source made the active and inactive calls.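 How the source made its calls: active means calcium signal cut by more than 3 SD below the full-agonist control yet still positive, in both repeats and the earlier primary screen; inactive means the rest.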
Field 'call' accepts label 1 (active), label 0 (inactive)

Use these answered entries as a reference point.
[[record]]
compound = "COc1ccc(CCNC(=O)Cn2cnc3c(cnn3C(C)(C)C)c2=O)cc1OC"
category_label = "label 0"

[[record]]
compound = "Cc1sc(NC(=O)C2CCCCC2C(=O)O)c(C(N)=O)c1-c1ccc(C(C)(C)C)cc1 (stereo unspecified)"
category_label = "label 1"

[[record]]
compound = "CC1=CC(=O)C(C(C)C)=C/C1=N/OS(=O)(=O)c1ccccc1"
category_label = "label 0"

[[record]]
compound = "OC1(c2cccs2)CN(c2ccc(Cl)cc2)C2=[N+]1CCCC2 (stereo unspecified)"
category_label = "label 1"

[[record]]
compound = "Cc1ccc(-n2c(C)cc(C)c(C#N)c2=O)cc1Cl"
category_label = "label 0"

[[record]]
compound = "NCCc1nnc(SCc2ccccc2)o1"
category_label = "label 0"

[[record]]
compound = "O=C(Cc1ccccc1[N+](=O)[O-])OCc1cccc([N+](=O)[O-])c1"
category_label = "label 1"

[[record]]
compound = "CN(Cc1cnn(C)c1)C(=O)c1ccc(OC2CCN(CCc3ccccc3)CC2)cc1"
category_label = "label 1"


// outcome(item) with item = "COc1ccc(Sc2nc(-c3ccccc3)ncc2C(=O)O)cc1"
label 1

// outcome(item) with item = "CCOC(=O)c1c(-c2ccc(OC)cc2)oc2ccc(O)cc12"
label 0

// outcome(item) with item = COc1ccc(C(CNC(=O)c2cccc(NS(=O)(=O)c3ccc(Br)cc3)c2)N(C)C)cc1 (stereo unspecified)
label 0

// outcome(item) with item = COc1ccc(CCN2C(=S)N(C)C(=O)C2CC(=O)Nc2ccc(F)cc2)cc1 (stereo unspecified)
label 0

// outcome(item) with item = "CCCCCN1C2=NCCN2c2ccccc21"
label 1

----------
# measurement_protocol: serotonin-gated TRPC4 signal block – cell-based, second counter screen, HEK293 TRPC4/5HT1a, Fluo-4, counter-screen for TRPC4 inhibitor project, confirmation (AID 434978);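 as to outcome: serotonin given first at submaximal then at maximal dose after compound preincubation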
# test_conditions: Fluo-4 calcium flux, at 10 µM, serotonin added to trigger calcium flux
Active and inactive are the calls of the source.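 The calls were made as follows: active = primary screen active whose calcium signal fell more than 3 SD beyond the full-serotonin control mean in both duplicate plates; inactive = the rest.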
Field 'call' accepts True = active, False = inactive

// outcome(item) with item = OCC1(Cc2ccccc2)CCCN(Cc2cnn(-c3ccccc3)c2)C1 (centres undefined)
True

// outcome(item) with item = "c1ccc(C2(CN3CCNC[C@H]3Cc3cccc4ccccc34)CC2)cc1"
False

// outcome(item) with item = COc1cc2c(cc1OC)C(C)N(C(=O)C(NC(=O)c1ccccc1)C(C)C)CC2 (centres undefined)
False

// outcome(item) with item = "O=C(c1ccc([N+](=O)[O-])s1)N1CCCc2ccccc21"
False

----------
# measured_target: Short transient receptor potential channel 4 (Mus musculus) (UniProt Q9QUQ5)
# measurement_protocol: blockers of DAMGO-evoked TRPC4 calcium flux – cell-based, Fluo4, HEK293 TRPC4beta/mu-opioid, confirmation (AID 2636)
# test_conditions: at 10 µM
Calls of active or inactive are those of the source.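 Rule for the calls: active = calcium signal cut by more than 3 SD below the full-agonist control yet still positive, in both repeats and the earlier primary screen; inactive = the rest.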
Field 'call' accepts 1 = active, -1 = inactive

Use these answered entries as a reference point.
[[record]]
compound = "Cc1ccc(Nc2ccc(S(=O)(=O)N3CCOCC3)cc2[N+](=O)[O-])cc1C"
category_label = -1

[[record]]
compound = "CN1CCCCc2c1nc1ccccc1c2N (tested in a mixture with another compound)"
category_label = 1

[[record]]
compound = "Cc1ccc(-n2cccn2)c(CN2CCCC(C(=O)c3ccc4c(c3)OCO4)C2)c1 (centres undefined)"
category_label = 1


Moving on to another compound below.
// outcome(item) with item = COC(=O)NCC(c1ccc2c(c1)OCO2)N1CCN(c2ccccc2)CC1 (centres undefined)
-1

----------
# measured_target: Short transient receptor potential channel 4 (Mus musculus)
# measurement_protocol: calcium flux activators in TRPC4/5HT1a cells, counter-screen for TRPC4 activator project, cell-based, second counter screen, HEK293 TRPC4/5HT1a, Fluo-4 (AID 434977)
# test_conditions: Fluo-4 calcium flux, at 10 µM
The source made the active and inactive calls.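 How the source made its calls: active means calcium signal rise above buffer-control mean plus 5 SD in both duplicates, and also a hit in the primary screen; inactive means the rest.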
Field 'call' accepts active, inactive

Use these answered entries as a reference point.
[[record]]
compound = "CCCn1c(N)c(C(=O)CSc2n[nH]c(-c3ccc(C)cc3)n2)c(=O)[nH]c1=O"
category_label = "inactive"

[[record]]
compound = "CC12CC3(C)CC(C)(C1)CC(NC(=O)N1CCCC1)(C2)C3"
category_label = "inactive"

[[record]]
compound = "Nc1c2c(nc3ccccc13)CCC2"
category_label = "inactive"

[[record]]
compound = "CCCn1c(SCC(=O)N2c3ccccc3Sc3ccccc32)nc2c1c(=O)n(C)c(=O)n2C"
category_label = "inactive"

[[record]]
compound = "CCOC(=O)CC(NC(=O)c1cc2cc(Br)ccc2oc1=O)c1cccc([N+](=O)[O-])c1 (stereo not drawn)"
category_label = "inactive"

[[record]]
compound = "Cc1ccc(S(=O)(=O)NC(C(=O)Oc2cc3oc(=O)cc(C)c3cc2Cl)C(C)C)cc1 (stereo not drawn)"
category_label = "inactive"

[[record]]
compound = "C=CCSc1nnc2n(-c3ccccc3OC)c(=O)c3c4c(sc3n12)CCC4"
category_label = "inactive"

[[record]]
compound = "COc1ccccc1N1CCN(CCCNC(=O)Nc2ccccc2)CC1"
category_label = "inactive"


// outcome(item) with item = COc1ccc(CCNCC(O)COc2ccc(OC)cc2C(C)(C)C)cc1 (stereo not drawn)
inactive

// outcome(item) with item = "CN(C)CCCN(C(=O)c1ccc(S(=O)(=O)N2CCc3ccccc3C2)cc1)c1nc2c(F)cc(F)cc2s1"
inactive

----------
# measured_target: Short transient receptor potential channel 4 (Mus musculus) (UniProt Q9QUQ5)
# measurement_protocol: calcium flux activators in TRPC4/5HT1a cells, counter-screen for TRPC4 activator project, cell-based, second counter screen, HEK293 TRPC4/5HT1a, Fluo-4 (AID 434977);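 as to activation: plate controls were assay buffer for no effect and maximal serotonin response for full effect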
# test_conditions: Fluo-4 calcium flux, at 10 µM; hits give high values
Activity calls are given as the source filed them.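 The calls were made as follows: active = calcium signal rise above buffer-control mean plus 5 SD in both duplicates, and also a hit in the primary screen; inactive = the rest.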
outcome_measure: activation

Take a look at these entries with their results.
[[record]]
molecule = "Cc1oc(-c2ccc(Cl)cc2)nc1CN1CCC(C(=O)NCc2cccs2)CC1"
measured_target = "Short transient receptor potential channel 4 (Mus musculus) (UniProt Q9QUQ5)"
outcome_measure = "activation"
reading = "inactive"

[[record]]
molecule = "Cc1ccc(-c2[nH]c3ccccc3c2SCCN)cc1"
measured_target = "Short transient receptor potential channel 4 (Mus musculus) (UniProt Q9QUQ5)"
outcome_measure = "activation"
reading = "inactive"

[[record]]
molecule = "CC(=O)N1CCN(c2ccccc2NC(=O)c2cccs2)CC1"
measured_target = "Short transient receptor potential channel 4 (Mus musculus) (UniProt Q9QUQ5)"
outcome_measure = "activation"
reading = "inactive"

[[record]]
molecule = "COc1ccccc1/C=C/CN1CCCC(CCC(=O)NCc2ccc(F)c(F)c2)C1 (stereo unspecified)"
measured_target = "Short transient receptor potential channel 4 (Mus musculus) (UniProt Q9QUQ5)"
outcome_measure = "activation"
reading = "35.2% (active)"

[[record]]
molecule = "Brc1ccc(N/N=C(/N=Nc2nn[nH]n2)c2ccccc2)cc1"
measured_target = "Short transient receptor potential channel 4 (Mus musculus) (UniProt Q9QUQ5)"
outcome_measure = "activation"
reading = "inactive"

[[record]]
molecule = "COc1ccc(Cl)c2sc(N(CCN(C)C)C(=O)CCS(=O)(=O)c3ccc(C)cc3)nc12"
measured_target = "Short transient receptor potential channel 4 (Mus musculus) (UniProt Q9QUQ5)"
outcome_measure = "activation"
reading = "inactive"


// query activation value for entry "CN(CCc1ccccn1)C(=S)Nc1cccc(S(=O)(=O)N(C)C)c1"
53.6% (active)

// query activation value for entry "O=C1CN=C(Nc2cccc(C(F)(F)F)c2)N1C1CCCC1"
inactive

// query activation value for entry "Cc1ccc(OCC(=O)N(C)CCc2ccccn2)cc1"
45.5% (active)

// query activation value for entry CCCCNCC1C(Oc2ccc(Cl)cc2)C(=O)N1c1ccccc1C (stereo unspecified)
inactive

// query activation value for entry "O=c1c(Cc2ccccc2)c(O)ccn1CCc1cnc[nH]1"
39.3% (active)

// query activation value for entry "CN(C)CCNC(=O)c1c(NC(=O)c2ccccc2)sc2c1CCCC2"
inactive

// query activation value for entry "CNC[C@H](Cc1ccccc1)NC[C@@H](Cc1cccc2ccccc12)NCCc1ccc(C)cc1"
68.3% (active)

// query activation value for entry COc1ccccc1CC(Cc1nc2ccccc2[nH]1)c1nc2ccccc2[nH]1 (stereo unspecified)
inactive

// query activation value for entry "N#Cc1ccc(-c2ccccc2)nc1SCCN1CCOCC1"
inactive

// query activation value for entry Cc1ccc(NC(=O)NCC(c2ccccc2)N(C)C)cc1 (stereo unspecified)
inactive
